A short record of Ki observed with D(2) dopamine receptor (Homo sapiens) follows.
Sequence (P14416 whole entry): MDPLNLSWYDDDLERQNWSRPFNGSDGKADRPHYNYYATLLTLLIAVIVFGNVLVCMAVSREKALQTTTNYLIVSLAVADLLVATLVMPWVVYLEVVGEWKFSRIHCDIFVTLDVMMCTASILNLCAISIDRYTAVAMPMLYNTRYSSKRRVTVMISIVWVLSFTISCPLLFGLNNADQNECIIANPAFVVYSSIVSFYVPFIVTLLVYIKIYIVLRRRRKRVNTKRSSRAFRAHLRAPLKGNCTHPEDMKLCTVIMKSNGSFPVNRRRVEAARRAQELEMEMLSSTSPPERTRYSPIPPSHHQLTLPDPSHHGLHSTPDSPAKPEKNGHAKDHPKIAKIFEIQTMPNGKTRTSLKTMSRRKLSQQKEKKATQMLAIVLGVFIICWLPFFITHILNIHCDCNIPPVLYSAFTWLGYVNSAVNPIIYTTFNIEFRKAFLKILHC
value-type: Ki (nM)

Examples with answers:
{"columns": ["molecule", "experimental-result"],
 "data": [
  ["CCCCC(Oc1cc(Cl)ccc1Cl)c1nc(N)nc(N2CCN(C)CC2)n1 (racemic)", 103],
  ["CCC(Oc1ccccc1)c1nc(N)nc(N2CCN(C)CC2)n1 (racemic)", 1510],
  ["CC(Oc1ccc(Cl)c(Cl)c1)c1nc(N)nc(N2CCN(C)CC2)n1 (racemic)", 754],
  ["CCC(Oc1cc(Cl)ccc1Cl)c1nc(N)nc(N2CCN(C)CC2)n1 (racemic)", 320]
]}

[P] CN1CCN(c2nc(N)nc(CCCOc3ccc(Cl)c(Cl)c3)n2)CC1
[Q] CN1CCN(c2nc(N)nc(CCCOc3cccc(Cl)c3Cl)n2)CC1
# min-compare on Ki between P and Q Label of pick, please. Q

###

assay-remarks: Permeability of the compound by PAMPA
Assay type: ADME
condition: read-out: permeability
value-type: Papp (×10⁻⁶ cm/s)

{"columns": ["molecule", "unit-string", "Papp"],
 "data": [
  ["CCC(Oc1cc(Cl)ccc1Cl)c1nc(N)nc(N2CCN(C)CC2)n1 (racemic)", "×10⁻⁶ cm/s", 18.9]
]}

[a] Cc1ccc(C(C)C)c(OC(C)c2nc(N)nc(N3CCN(C)CC3)n2)c1 (stereo not drawn)
[b] CC(Oc1cc(Cl)ccc1Cl)c1nc(N)nc(N2CCN(C)CC2)n1 (racemic)
# min-compare on Papp between a and b Label of pick, please. a

###

A short record of pKi observed with 5-hydroxytryptamine receptor 7 (Homo sapiens, UniProt P34969) follows.
Sequence (P34969 whole entry): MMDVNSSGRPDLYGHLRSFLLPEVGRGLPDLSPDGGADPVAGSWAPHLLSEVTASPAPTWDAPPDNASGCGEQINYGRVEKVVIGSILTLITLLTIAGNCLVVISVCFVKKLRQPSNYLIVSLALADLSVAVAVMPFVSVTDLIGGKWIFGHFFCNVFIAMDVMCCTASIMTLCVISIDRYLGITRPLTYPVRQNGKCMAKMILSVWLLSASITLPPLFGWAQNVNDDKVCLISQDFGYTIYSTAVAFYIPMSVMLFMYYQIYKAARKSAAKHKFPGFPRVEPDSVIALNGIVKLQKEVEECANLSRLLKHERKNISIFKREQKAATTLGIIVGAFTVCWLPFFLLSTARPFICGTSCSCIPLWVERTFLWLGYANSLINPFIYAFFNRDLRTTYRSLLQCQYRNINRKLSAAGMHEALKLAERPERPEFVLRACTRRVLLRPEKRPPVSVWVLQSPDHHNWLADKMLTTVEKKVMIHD
pKi: −log10 of the molar value.
value-type: pKi

{"columns": ["molecule", "pKi"],
 "data": [
  ["CC(Oc1ccc(Cl)c(Cl)c1)c1nc(N)nc(N2CCN(C)CC2)n1 (racemic)", 5.23],
  ["CCC(Oc1ccc(Cl)c(Cl)c1)c1nc(N)nc(N2CCN(C)CC2)n1 (racemic)", 5.29],
  ["CC(Oc1cccc(Cl)c1Cl)c1nc(N)nc(N2CCN(C)CC2)n1 (racemic)", 4.90]
]}
